Hello, the source for this data is PubChem BioAssay (NCATS), in case you need it.

- Tested on: Zika virus NS2B-NS3 protease
- METHOD: Primary screen GU AMC qHTS for Zika virus inhibitors (AID 1347154); further: nearly all actives have a fitted effect of over 70% in size
- COND: Zika NS2B-NS3 unlinked protease, AMC fluorogenic substrate; series mostly up to 54.1 µM
Results filed as inconclusive are left out. The source made the active and inactive calls. The call rests on the fitted dose curve; in most records, active means well fitted inhibition curve with a large enough effect; inconclusive means small, poorly fitted or top-dose-only effect; inactive means flat fitted curve, though single readings scatter.
Your response should consist of one outcome taken from active, inactive

CCCCCCCCCCCCCC[N+](C)(C)Cc1ccccc1
inactive
O=C(O)C(Cc1cc(I)c(O)c(I)c1)c1ccccc1 (stereo unspecified)
inactive
CC(=O)Nc1ccc(OCC(O)CNC(C)C)cc1 (stereo unspecified)
inactive
Nc1nc(Cl)nc2c1ncn2[C@@H]1O[C@H](CO)[C@@H](O)[C@@H]1F
inactive

**Query** How was CC[C@H](c1ccc(O)cc1)[C@@H](CC)c1ccc(O)cc1 classified in this test?
**Result** inactive

**Query** Hi, do you know how CCOC(=O)Nc1ccc2c(c1)N(C(=O)CCN1CCOCC1)c1ccccc1S2 came out in this test?
**Result** inactive
